# Avg. PDI listing for each entry below
Method summary: LNP Characteristics (size, PDI, encapsulation efficiency) of LNPs formulated with novel ionizable lipids
Format: physicochemical
Measurement context: LNP formulated with the ionizable lipid, DOPE, Cholesterol, DMG-PEG2000
Enter the number alone.

Below, each entry is followed by its recorded Avg. PDI result.
Compound	Avg. PDI
CCCCCCCCCCC(CCCCCCCC)CN(C(=O)CCC(C)C1CCC2C3CC(O)C4CC(O)CCC4(C)C3CCC12C)C(CC1CCN(C)CC1)C(=O)NC12CC3CC(CC(C3)C1)C2 (stereo not drawn) [Lipid P161F10]	0.19
CCCCCCCCCCCCCCCCC(=O)N(C(CCCCCCC)CCCCCCC)C(C(=O)NC12CC3CC(CC(C3)C1)C2)C1CCN(CC)CC1 (stereo not drawn) [Lipid P56B1]	0.10

Below: the item to evaluate.
Which Avg. PDI is listed for CCCCCCCCCCCCCC(=O)N(C(CCCCCCCC)CCCCCCCC)C(CC1CCN(C)CC1)C(=O)NC1CCCCCC1 (stereo not drawn) [Lipid P38D8] ? 0.18
